System: GH3-TRE-Luc cell line
Details: read-out: AC50 (uM) modified / 1000; Tox21_110001=Tox21_112574; viability, 1 nM T3 present, 24 h
property-name: CC50 (µM)

> print(dat)
                                   compound  property.name  observed.result
1  CCCCCCCCCCCCCCCC[N+](C)(C)Cc1ccccc1 [Benzylhexadecyldimethylammonium chloride]           CC50             13.4

* * *

Experiment: in vitro
Conditions: rat, gh3-tre-luc cells, AC50 (uM) modified / 1000, Tox21_110001=Tox21_112872; viability, 1 nM T3 present, 24 h
property-name: CC50 at 24 h

> print(dat)
                                   compound  property.name  observed.result
1  CCN(CC)C(=O)[C@@H]1C=C2c3cccc4[nH]cc(c34)C[C@H]2N(C)C1 [Lysergide]   CC50 at 24 h         > 200 µM

* * *

Recorded CC50 at 24 h for the following compounds
Assay: in vitro
Settings: rat, gh3-tre-luc cells, AC50 (uM) modified / 1000
Where a name gives a salt, the structure may show the parent alone.
property-name: CC50 at 24 h

> print(dat)
                                    compound  observed.result
 1  COCC(C)OC(C)=O (stereo not drawn) [1-Methoxy-2-propyl acetate]          > 90 µM
 2  On1ccccc1=S [Sodium (2-pyridylthio)-N-oxide]          1.83 µM
 3  NC[C@H]1CC[C@H](C(=O)Oc2ccc(CCC(=O)O)cc2)CC1 [Cetraxate hydrochloride]          > 50 µM
 4  O=[N+]([O-])c1cc(I)c(O)c(I)c1 [2,6-Diiodo-4-nitrophenol]          24.5 µM
 5           CCCCCCCCCCCCCC=O [Tetradecanal]           > 5 µM
 6  CCCCCCCCCCCCCCCCCCOS(=O)(=O)O [Octadecyl sulfate sodium salt]          53.1 µM
 7  COc1nn(C(=O)NS(=O)(=O)c2ccccc2OC(F)(F)F)c(=O)n1C [Flucarbazone-sodium]          > 90 µM
 8  CCOc1ccc2ccccc2c1C(=O)N[C@@H]1C(=O)N2[C@@H]1SC(C)(C)[C@@H]2C(=O)O [Nafcillin sodium monohydrate]          > 20 µM
 9  COc1ccc2c3c1O[C@H]1C(=O)CC[C@H]4[C@@H](C2)N(C)CC[C@]314 [Hydrocodone phosphate (2:3) monohydrate]          > 50 µM
10  Clc1ccc2c(c1)C(c1ccccc1)=NCc1nncn1-2 [Estazolam]          > 50 µM
11  COc1ccc(NS(=O)(=O)c2ccc(N)cc2)nn1 [Sulfamethoxypyridazine]          > 20 µM
12  CCc1c2c(nc3ccc(OC(=O)N4CCC(N5CCCCC5)CC4)cc13)-c1cc3c(c(=O)n1C2)COC(=O)[C@]3(O)CC [Irinotecan hydrochloride]          > 50 µM
13   CS(=O)(=O)Cl [Methanesulfonyl chloride]          > 90 µM
14  CC(=O)CC(=O)Nc1ccccc1C [N-(2-Methylphenyl)-3-oxobutanamide]          > 90 µM
15  O=C(OCC(COC(=O)c1ccccc1)(COC(=O)c1ccccc1)COC(=O)c1ccccc1)c1ccccc1          > 90 µM
16  C[C@@H](O)[C@H]1C(=O)N2C(C(=O)O)=C(SCCN=CN)C[C@H]12 [Imipenem]          > 20 µM
17  O=C1c2ccccc2C(=O)C1c1ccc(Cl)cc1 [Clorindione]          > 50 µM
18  CC(C)COC(=O)/C=C/c1ccccc1 [Isobutyl 3-phenylacrylate]          > 90 µM

* * *

Test: in vitro
Settings: rat, gh3-tre-luc cells, AC50 (uM) modified / 1000
The entries below are paired with their reported CC50 at 24 h.
property-name: CC50 at 24 h

> print(dat)
                                    compound  observed.result
 1                      CC(C)c1cccc(C(C)C)c1          > 90 µM
 2  CC1=C(O)C(=O)CO1 [4-Hydroxy-5-methyl-3-furanone]          > 90 µM
 3                            Cn1sc(Cl)cc1=O          65.6 µM
 4  Cc1ccccc1/N=N/c1ccc(/N=N/c2c(O)ccc3ccccc23)c(C)c1          > 50 µM
 5         c1ccc(OCc2ccc(CCCN3CCOCC3)cc2)cc1          16.1 µM
 6  CC(C)(OO)c1ccccc1 [Cumene hydroperoxide]          79.6 µM
 7  COC(COC(N)=O)C1=C(N2CC2)C(=O)C(C)=C(N2CC2)C1=O (stereo not drawn)         0.556 µM
 8  CN/C(=N/CC1CCOC1)N[N+](=O)[O-] (stereo not drawn)          > 90 µM
 9  CCCCCCCCCCCCCCCC(=O)OCCC1CCN(CCCN2c3ccccc3Sc3ccc(S(=O)(=O)N(C)C)cc32)CC1 [Pipothiazine palmitate]          > 50 µM
10                       CC(N)=O [Acetamide]         > 200 µM
11  OC[C@H]1O[C@@H](Oc2ccc(O)cc2)[C@H](O)[C@@H](O)[C@@H]1O          > 90 µM
12                 O=C(O)c1cccc(Oc2ccccc2)c1          > 90 µM
13              O=C(O)c1cc(=O)[nH]c(=O)[nH]1          > 90 µM
14                         ClCc1ccc(Cl)cc1Cl          > 90 µM
15                              Nc1ccc(F)cc1         > 100 µM
16                              CCCCCCCCCC#N          > 90 µM
17                                  C1OCOCO1          > 90 µM
18  Cc1nnc2n1-c1sc(CCC(=O)N3CCOCC3)cc1C(c1ccccc1Cl)=NC2          > 50 µM
19  CC(O)CN(CCCN(C)C)CCCN(C)C (stereo not drawn)          > 90 µM
20                         NCCCNCCSP(=O)(O)O          > 50 µM
21                 CCC(CO)(CO)COCC(CC)(CO)CO          > 90 µM
22                   CC(=O)Nc1ccc(C(=O)O)cc1          > 90 µM
23  CC(C)(c1cc(Br)c(OCCO)c(Br)c1)c1cc(Br)c(OCCO)c(Br)c1          44.3 µM
24  O=C(c1ccc(O)cc1O)c1ccc(O)cc1O [2,2',4,4'-Tetrahydroxybenzophenone]          > 90 µM
25              CNC(C)=O [N-Methylacetamide]          > 90 µM
26                     OCc1cccc(Oc2ccccc2)c1          > 90 µM
27     CCCCCNC(=N)N/N=C/c1c[nH]c2ccc(OC)cc12          > 50 µM
28              C=C(C)C(=O)OCCCCOC(=O)C(=C)C          > 90 µM
29  C=C(C)C(=O)OCCCCCCCCCCOC(=O)C(=C)C [1,10-Decanediol dimethacrylate]          > 90 µM
30        COP(=O)(OC)SCn1c(=O)oc2cc(Cl)cnc21          > 90 µM

* * *

Test: in vitro
Conditions: rat, gh3-tre-luc cells, AC50 (uM) modified / 1000
Where a name gives a salt, the structure may show the parent alone.
property-name: CC50 at 24 h

> print(dat)
                                    compound  observed.result
 1  CC1COc2ccccc2N1C(=O)C(Cl)Cl (stereo not shown) [Benoxacor]          11.9 µM
 2  COCCOCCOCCOCCOC [2,5,8,11,14-Pentaoxapentadecane]          > 90 µM
 3                O=Cc1ccccc1 [Benzaldehyde]          > 90 µM
 4  CCCCCCCC(=O)Oc1c(Br)cc(C#N)cc1Br [Bromoxynil octanoate]          > 90 µM
 5               CC(C)(C)N [tert-Butylamine]          > 90 µM
 6  CN1C(=O)CC(C)(c2ccccc2)C1=O (stereo not shown) [Methsuximide]          > 50 µM
 7  CCCCCCCCCCCC[n+]1ccc2ccccc2c1 [2-Dodecylisoquinolinium tosylate]          5.61 µM
 8          CCCCCCC/C=C/C=O [(2E)-2-Decenal]          > 90 µM
 9  O[C@@H](c1cc(C(F)(F)F)nc2c(C(F)(F)F)cccc12)[C@H]1CCCCN1 [Mefloquine hydrochloride]          5.17 µM
10  CC(C)(O)C(=O)O [2-Hydroxyisobutyric acid]          > 90 µM
11  CCCOc1ccc(C(=O)OCCN(CC)CC)cc1N [Proparacaine hydrochloride]          > 50 µM
12  CC(C)(c1ccc(OCC2CO2)cc1)c1ccc(OCC2CO2)cc1 (stereo not shown) [Bisphenol A diglycidyl ether]          66.1 µM
13         CCCc1ccc(OC)cc1 [4-Propylanisole]          > 90 µM
14        O=[N+]([O-])C(Br)(CO)CO [Bronopol]            22 µM
15  O=C(O)C1=NN(c2ccc(S(=O)(=O)O)cc2)C(=O)C1          > 90 µM
16               Cc1cc(Cc2ccc(N)c(C)c2)ccc1N          > 90 µM
17  O=C1NC2NC(=O)NC2N1 (stereo not shown) [Glycoluril]          > 90 µM
18  C#CCOC(=O)[C@@H](C)Oc1ccc(Oc2ncc(Cl)cc2F)cc1 [Clodinafop-propargyl]          > 90 µM
19  NC1(c2ccc(-c3nc4ccn5c(=O)[nH]nc5c4cc3-c3ccccc3)cc2)CCC1 [MK-2206]          16.8 µM
20  CCOc1cccc(-n2cc(C(=O)N3CCN(c4cc(C(=O)O)c5ccccc5c4)CC3)nc2-c2ccc(C)cc2)c1 [PharmaGSID_47337]          77.9 µM
21           Cc1ncsc1CCO [Thiamine thiozole]          > 90 µM
22      CC(C)C(=O)O [2-Methylpropanoic acid]          > 90 µM
23                           CCCCC [Pentane]          > 90 µM
24  COc1ccc(CNCC(O)COc2ccc3[nH]c(=O)ccc3c2)cc1OC (stereo not shown) [Toborinone]          > 50 µM
25  Nc1cnn([C@@H]2O[C@H](CO)[C@@H](O)[C@H]2O)c(=O)n1 [6-Azacytidine]          > 90 µM
26  CCCC(=O)O[C@]1(C(=O)COC(=O)CC)CC[C@H]2[C@@H]3CCC4=CC(=O)CC[C@]4(C)[C@H]3[C@@H](O)C[C@@]21C [Hydrocortisone buteprate]          > 50 µM
27  Cc1cccc(Nc2cc(Cl)nc(SCC(=O)O)n2)c1C [Pirinixic acid]          > 90 µM
28  COc1cc(CNC(=O)CCCC/C=C/C(C)C)ccc1O [Capsaicin]          > 90 µM
29  CNc1cc(OC)c(C(=O)N[C@@H]2CCN(Cc3ccccc3)[C@@H]2C)cc1Cl (racemic) [Nemonapride]          > 50 µM
30  COc1cc(-c2ccc(N)c(OC)c2)ccc1N [3,3'-Dimethoxybenzidine dihydrochloride]          > 90 µM
31  CC1CC[C@@H]2C[C@H]1C2(C)C (stereo partly shown) [Pinane]          > 90 µM
